Organism: Rattus norvegicus
Experiment: Displacement of [3H]BTX-B from VGSC site 2 in rat forebrain membranes at 40 uM incubated at 37 degC for 60 mins
Assay type: cell membranes
Conditions: Brain, Membrane
valueType: inhibition (%)
Number only, in %; omit the unit.

What inhibition value was documented for this compound, CCCCCCCC(O)(c1cccc(Cl)c1)c1ccc(C)cn1 (centres undefined) ? 41

Also CCCCCCCC1(c2cccc(Cl)c2)NC(=O)NC1=O (centres undefined) ? 70

Also C#CC(O)(CCCCCCC)c1cccc(Cl)c1 (centres undefined) ? 78

Also O=C1NC(=O)C(CCCOCc2ccccc2)(c2cccc(Cl)c2)N1 (centres undefined) ? 71

Also O=C1NC(=O)C(CCCCCC2CC2)(c2cccc(Cl)c2)N1 (centres undefined) ? 87

Also CCCCCCCC(O)(c1cccc(Cl)c1)c1ccc(F)c(F)c1 (centres undefined) ? 42

Also C=CCCCCCC1(c2cccc(Cl)c2)NC(=O)N(CC=C)C1=O (centres undefined) ? 72

Also C=CCCCCCC1(c2cccc(Cl)c2)NC(=O)NC1=O (centres undefined) ? 79

Also CCCCCCCC1(c2cccc(Cl)c2)OC(C)(C)OC1=O (centres undefined) ? 27

Also CCCCCCCC1(c2cccc(Cl)c2)C(=O)N=C(SC)N1C (centres undefined) ? 18

Also O=C1NC(=O)C(c2ccccc2)(c2ccccc2)N1 ? 28

Also CCCCCCCC(O)(C(N)=O)c1cccc(Cl)c1 (centres undefined) ? 48

Also CCCCCCCC(O)(c1cccc(Cl)c1)c1cc(F)cc(OC)c1 (centres undefined) ? 56

Also CCCCCCCC1(c2cccc(Cl)c2)NC(=S)NC1=O (centres undefined) ? 67

Also CCCCCCCC1(c2cccc(Cl)c2)NC(=O)N(Cc2cccc(F)c2)C1=O (centres undefined) ? 71

Also CCCCCCCC(O)(c1cccc(Cl)c1)c1cc(C(F)(F)F)cc(C(F)(F)F)c1 (centres undefined) ? 8

Also CCCCCCCC(O)(c1cccc(Cl)c1)c1cccc(OC)c1 (centres undefined) ? 51

Also CCCCCCCC1(c2cccc(Cl)c2)NC(SC)=NC1=O (centres undefined) ? 51

Also C=CCN1C(=O)NC(CCCCCCC)(c2cccc(Cl)c2)C1=O (centres undefined) ? 83

Also O=C1NC(=O)C(CCCCCC2CO2)(c2cccc(Cl)c2)N1 (centres undefined) ? 28

Also C=CCCCCCC(O)(C(N)=O)c1cccc(Cl)c1 (centres undefined) ? 86

Also CN(C)c1cccc2c(S(=O)(=O)NCCCCCC3(c4cccc(Cl)c4)NC(=O)NC3=O)cccc12 (centres undefined) ? 86

Also CCCCCCCC(O)(c1cc(F)cc(F)c1)c1cccc(Cl)c1 (centres undefined) ? 35

Also C#CCN1C(=O)NC(CCCCCCC)(c2cccc(Cl)c2)C1=O (centres undefined) ? 57
